- subject of test: Neurotensin receptor type 1 (Homo sapiens) (UniProt P30989)
- Sequence (P30989 whole entry, looked up): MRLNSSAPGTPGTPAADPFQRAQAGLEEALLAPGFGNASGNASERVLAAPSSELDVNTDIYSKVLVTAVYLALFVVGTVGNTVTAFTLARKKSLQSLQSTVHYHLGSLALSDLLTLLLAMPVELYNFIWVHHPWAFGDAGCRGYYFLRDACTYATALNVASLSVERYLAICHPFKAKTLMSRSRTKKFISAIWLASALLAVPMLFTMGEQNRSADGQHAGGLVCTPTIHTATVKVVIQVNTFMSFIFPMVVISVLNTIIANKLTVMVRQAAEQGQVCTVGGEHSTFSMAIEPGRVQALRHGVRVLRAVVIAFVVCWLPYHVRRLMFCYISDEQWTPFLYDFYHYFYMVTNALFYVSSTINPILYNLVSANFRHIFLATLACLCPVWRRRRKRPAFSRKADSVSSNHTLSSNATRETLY
- procedure text: NTR1 agonists, beta-arrestin recruitment, SAR follow-up, orthogonal assay for NTR1 agonist project, cell-based, luminescence, CHO-K1 NTSR1 PathHunter (AID 602427);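 note: agonist potency for NTR1 activation where higher luminescence means more arrestin recruitment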
The source made the active and inactive calls.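 Rule for the calls: active = EC50 at or below 20 micromolar; inactive = the rest.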
Please reply with one of these outcomes: true (active), false (inactive)

- molecule: "COc1ccccc1-c1cc(C(=O)N[C@@H](CC(C)C)C(=O)O)nn1-c1ccnc2cc(Cl)ccc12"
  subject of test: "Neurotensin receptor type 1 (Homo sapiens) (UniProt P30989)"
  label class: "true"
- molecule: "COc1cc2c3nnc(-c4ccccc4)c-3cn(Cc3ccc(C)cc3)c2cc1OC"
  subject of test: "Neurotensin receptor type 1 (Homo sapiens) (UniProt P30989)"
  label class: "false"
- molecule: "Cc1ccc(-n2ncc3c(N4CCN(c5ccccc5)CC4)ncnc32)c(C)c1"
  subject of test: "Neurotensin receptor type 1 (Homo sapiens) (UniProt P30989)"
  label class: "false"
- molecule: "COc1cccc(OC)c1-c1nc(C(=O)N[C@@H](CC(C)C)C(=O)O)cn1-c1ccncc1"
  subject of test: "Neurotensin receptor type 1 (Homo sapiens) (UniProt P30989)"
  label class: "false"
- molecule: "CCn1cc2c(-c3ccc(F)cc3)nnc-2c2cc(OC)c(OC)cc21"
  subject of test: "Neurotensin receptor type 1 (Homo sapiens) (UniProt P30989)"
  label class: "false"

What outcome does the record of this test show for `CCOc1cc2nc(-c3ccc(OC)c(OC)c3)nc(N3CCN(c4ccccc4)CC3)c2cc1OC` ?
false

What outcome does the record of this test show for `COc1ccc2c(c1)c1nnc(-c3ccc(F)cc3)c-1cn2Cc1ccc(F)cc1` ?
false

What outcome does the record of this test show for `COc1cc2c(=O)c(C(=O)c3ccc(F)cc3)cn(CCc3ccccc3)c2cc1OC` ?
false

What outcome does the record of this test show for `COc1ccc2c(c1)c(=O)c(C(=O)c1ccc(F)cc1)cn2Cc1ccc(F)cc1` ?
false

What outcome does the record of this test show for `COc1cc2c3nnc(-c4ccc(F)cc4)c-3cn(Cc3ccc(C)cc3)c2cc1OC` ?
false

What outcome does the record of this test show for `Clc1ccccc1-n1ncc2c(N3CCN(c4ccccc4)CC3)ncnc21` ?
false

What outcome does the record of this test show for COc1cccc(OC)c1-c1cc(C(=O)NC2(C(=O)O)C3CC4CC(C3)CC2C4)nn1-c1ccnc2cc(Cl)ccc12 (stereo not given) ?
false

What outcome does the record of this test show for `COc1ccc(-c2nnc3c4ccccc4n(Cc4ccc(F)cc4)cc2-3)cc1` ?
false

What outcome does the record of this test show for `COc1cc2nc(C3CCC3)nc(N3CCN(c4ccccc4Cl)CC3)c2cc1OC` ?
false

What outcome does the record of this test show for `c1ccc(N2CCN(c3ncnc4c3cnn4-c3ccccc3)CC2)cc1` ?
false

====

- subject of test: Neurotensin receptor type 1 (Homo sapiens)
- procedure text: NTR1 agonists, beta-arrestin recruitment, SAR follow-up, orthogonal assay for NTR1 agonist project, cell-based, luminescence, CHO-K1 NTSR1 PathHunter (AID 602427);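 note: agonist potency for NTR1 activation where higher luminescence means more arrestin recruitment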
Activity calls are given as the source filed them.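 Rule for the calls: active = EC50 at or below 20 micromolar; inactive = the rest.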
measurement kind: EC50

Use the examples below as a reference point.
- chemical string: "COc1ccc(N2CCN(c3nc(C4CCC4)nc4cc(OC)c(OC)cc34)CC2)cc1"
  observed value: "> 33 µM (inactive)"
- chemical string: "Cc1ccc(-n2ncc3c(N4CCN(c5ccc([N+](=O)[O-])cc5)CC4)ncnc32)c(C)c1"
  observed value: "> 33 µM (inactive)"
- chemical string: "COc1cccc(OC)c1-c1cc(C(=O)O)nn1-c1ccnc2cc(Cl)ccc12"
  observed value: "> 33 µM (inactive)"
- chemical string: "Cc1ccc(Cn2cc3c(-c4ccc(F)cc4)nnc-3c3ccccc32)cc1"
  observed value: "> 33 µM (inactive)"
- chemical string: "CCOc1ccc(-c2nnc3c4cc(OC)c(OC)cc4n(Cc4ccccc4)cc2-3)cc1"
  observed value: "inactive"

# lookup: Neurotensin receptor type 1 (Homo sapiens) EC50, key = `COc1ccccc1-c1nc(C(=O)N[C@@H](CC(C)C)C(=O)O)cn1-c1ccncc1`
> 33 µM (inactive)

# lookup: Neurotensin receptor type 1 (Homo sapiens) EC50, key = `COc1ccc(Cn2cc3c(-c4ccc(OC)cc4)nnc-3c3ccccc32)cc1`
> 33 µM (inactive)

# lookup: Neurotensin receptor type 1 (Homo sapiens) EC50, key = `COc1ccc2c(c1)c1nnc(-c3ccc(F)cc3)c-1cn2Cc1ccccc1`
> 33 µM (inactive)

# lookup: Neurotensin receptor type 1 (Homo sapiens) EC50, key = `COc1cc2c3nnc(-c4ccc(Cl)cc4)c-3cn(Cc3ccc(F)cc3)c2cc1OC`
> 33 µM (inactive)

# lookup: Neurotensin receptor type 1 (Homo sapiens) EC50, key = `COc1cc2c3nnc(-c4ccc(C)c(C)c4)c-3cn(Cc3ccccc3)c2cc1OC`
inactive
